Listing of recorded polymerase ribozyme fitness (log ratio) by entry.
B1: TPR 5TU (parent)
chain: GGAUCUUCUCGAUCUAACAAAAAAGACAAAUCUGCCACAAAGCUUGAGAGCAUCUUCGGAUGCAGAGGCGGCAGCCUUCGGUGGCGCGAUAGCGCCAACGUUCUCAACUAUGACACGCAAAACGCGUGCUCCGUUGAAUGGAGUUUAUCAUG

Variants of: B1
Test: polymerase ribozyme fitness, log enrichment relative to wild type (log ratio); higher = more active; in vitro selection for triplet polymerase activity
Fewer inactive variants are shown than the library holds.

MUTATION LIST	polymerase ribozyme fitness (log ratio)
A40G C118U	-2.18
A29G A30U C43U G50A G67U C79G G88U C99A G141A	≤ -4.2
A21U A39U C43G G50C G92A G141U	≤ -4.2
U6G U13G C14U A24C C76A G81U C87A	≤ -4.2
U15A A29C C35A G59A C76U G143C	≤ -4.2
C116G G124C U148C	≤ -4.2
A37G C54U G59C C69U	-1.86
A52U A60G C76U A89U C96U	-3.8
A39G A41G G46C C51G U56A A60C C72U A97G U111C C125A	≤ -4.2
C57U C75U C123G U144C	-0.394
C18U G25C C43G C99A	≤ -4.2
A22C A26U U31C A37C U56C A73C A91C	≤ -4.2
A73G A119C	-0.028
C85A A97U G152A	≤ -4.2
C10A A17C A20C G34U G58C U90G	≤ -4.2
C85A C103A A147G	≤ -4.2
A26G C27G A40G C57U C85U C118U	-3.9
A19C C51A G86C	-3.75
G48U A120U	-0.0736
A89C A107U	≤ -4.2
U7C A39G C85G C105A A107U	≤ -4.2
U31C U45A G70C G92C	≤ -4.2
